system: DU-145 prostate; assay: NCI-60 one-dose screen, 48 h; conditions: 10 µM unless noted
Compounds without any hit were thinned out: in the full panel of roughly 83,000, 20% have a hit. Calls of active or inactive are those of the source. How the source made its calls: active means growth percent below 10; inactive means the rest.
Use one of these outcomes when replying: t (active), f (inactive)

Exercise: Which result was noted for this compound in the test: COc1cc2c(cc1OC)C(CC1(O)CCCCC1)N(S(=O)(=O)c1ccc(C)cc1)CC2 (stereo unspecified)
Solution: f

Exercise: Which result was noted for this compound in the test: CCNCCCn1c2c(c3ccc(F)cc3c1=O)C(=O)c1cc(OC)cnc1-2
Solution: t

Exercise: Which result was noted for this compound in the test: COc1ccc(C2CC(c3ccc(Nc4ccnc5cc(Cl)ccc45)cc3)=NN2C(C)=O)cc1 (stereo unspecified)
Solution: f

Exercise: Which result was noted for this compound in the test: COc1ccc2ncccc2c1Cc1c(OC)ccc2ncccc12
Solution: f

Exercise: Which result was noted for this compound in the test: O=C1C=CC(=O)N1c1ccccc1N1C(=O)C=CC1=O
Solution: f

Exercise: Which result was noted for this compound in the test: CC(=O)/C(=C/c1ccc(Cl)cc1)C(=O)c1ccccc1
Solution: f

Exercise: Which result was noted for this compound in the test: O=C1OC(Oc2ccccc2)(c2ccccc2)c2ccccc21 (stereo unspecified)
Solution: f

Exercise: Which result was noted for this compound in the test: CNCCCn1c2c(c3ccc(F)cc3c1=O)C(=O)c1cc(OC)cnc1-2
Solution: t

Exercise: Which result was noted for this compound in the test: CCN(CC)CCSc1ncnc2c1cnn2-c1ccc(S(N)(=O)=O)cc1
Solution: f

Exercise: Which result was noted for this compound in the test: CSc1nc2nc3c(nc2c(=O)n1C)C(=O)c1ccccc1C3=O
Solution: t

Exercise: Which result was noted for this compound in the test: COc1ccc2c(c1)c(CC(=O)[Se]C)c(C)n2C(=O)c1ccc(Cl)cc1
Solution: t
